# test system: DNA topoisomerase 2-alpha (Homo sapiens)
# test protocol: Inhibition of recombinant human topoisomerase 2alpha assessed as relaxation of supercoiled plasmid pBR322 DNA at 100 uM by agarose gel electrophoresis (reference value: 81%)
Please go through the items and note down their inhibition.
Numbers only here, please. The scale is %.

Query: Give recorded inhibition. O=C1c2ccccc2-c2nc(-c3ccccc3C(F)(F)F)cc(-c3ccccc3)c21
Reply: 83.1

Query: Give recorded inhibition. O=C1c2ccccc2-c2nc(-c3ccc(OC(F)(F)F)cc3)cc(-c3ccccc3)c21
Reply: 6.5

Query: Give recorded inhibition. O=C1c2ccccc2-c2nc(-c3cccc(OC(F)(F)F)c3)cc(-c3ccccc3)c21
Reply: 0.5

Query: Give recorded inhibition. O=C1c2ccccc2-c2nc(-c3ccc(C(F)(F)F)cc3)cc(-c3ccccc3)c21
Reply: 57.2

Query: Give recorded inhibition. O=C1c2ccccc2-c2nc(-c3ccccc3OC(F)(F)F)cc(-c3ccccc3)c21
Reply: 0.6

Query: Give recorded inhibition. O=C1c2ccccc2-c2nc(-c3cccc(C(F)(F)F)c3)cc(-c3ccccc3)c21
Reply: 92.2

----------
# test system: DNA topoisomerase 1 (Homo sapiens)
# test protocol: Inhibition of recombinant human topoisomerase 1 assessed as relaxation of supercoiled plasmid pBR322 DNA at 100 uM by agarose gel electrophoresis (reference value: 81.9%)
property: inhibition (%)
Numbers only here, please. The scale is %.

Query: Give recorded inhibition. O=C1c2ccccc2-c2nc(-c3ccc(OC(F)(F)F)cc3)cc(-c3ccccc3)c21
Reply: 34.3

Query: Give recorded inhibition. O=C1c2ccccc2-c2nc(-c3ccccc3C(F)(F)F)cc(-c3ccccc3)c21
Reply: 45

Query: Give recorded inhibition. O=C1c2ccccc2-c2nc(-c3ccccc3OC(F)(F)F)cc(-c3ccccc3)c21
Reply: 35

Query: Give recorded inhibition. O=C1c2ccccc2-c2nc(-c3cccc(OC(F)(F)F)c3)cc(-c3ccccc3)c21
Reply: 100

Query: Give recorded inhibition. O=C1c2ccccc2-c2nc(-c3cccc(C(F)(F)F)c3)cc(-c3ccccc3)c21
Reply: 81.9

Query: Give recorded inhibition. O=C1c2ccccc2-c2nc(-c3ccc(C(F)(F)F)cc3)cc(-c3ccccc3)c21
Reply: 89.8

----------
# test system: UniProt P11387
# Sequence (whole entry): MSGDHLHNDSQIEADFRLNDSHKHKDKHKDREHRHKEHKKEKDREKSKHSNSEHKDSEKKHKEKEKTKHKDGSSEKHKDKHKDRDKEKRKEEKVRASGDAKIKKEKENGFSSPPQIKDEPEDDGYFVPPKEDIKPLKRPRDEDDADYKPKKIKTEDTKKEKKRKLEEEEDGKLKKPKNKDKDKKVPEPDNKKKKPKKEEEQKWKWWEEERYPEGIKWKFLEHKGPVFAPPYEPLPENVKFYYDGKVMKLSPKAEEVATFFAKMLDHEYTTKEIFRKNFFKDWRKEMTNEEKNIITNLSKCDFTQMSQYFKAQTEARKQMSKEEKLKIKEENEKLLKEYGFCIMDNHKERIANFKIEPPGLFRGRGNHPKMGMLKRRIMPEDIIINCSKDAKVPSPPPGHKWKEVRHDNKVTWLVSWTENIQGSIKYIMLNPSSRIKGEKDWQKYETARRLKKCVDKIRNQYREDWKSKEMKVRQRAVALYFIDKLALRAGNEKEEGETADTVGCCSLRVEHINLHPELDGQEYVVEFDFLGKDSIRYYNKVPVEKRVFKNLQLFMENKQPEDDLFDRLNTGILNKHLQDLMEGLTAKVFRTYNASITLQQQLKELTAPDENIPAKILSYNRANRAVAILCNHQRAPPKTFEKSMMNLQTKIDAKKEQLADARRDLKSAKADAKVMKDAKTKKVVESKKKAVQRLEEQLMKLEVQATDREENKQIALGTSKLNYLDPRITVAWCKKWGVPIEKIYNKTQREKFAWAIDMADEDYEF
# test protocol: Inhibition of recombinant human topoisomerase 1 assessed as relaxation of supercoiled plasmid pBR322 DNA at 100 uM by agarose gel electrophoresis (reference value: 90.6%)
Hi, to clarify the labels: True covers inhibition from 8% upward, False covers anything below 8%.

Query: Please indicate if the recorded inhibition for OC1c2ccccc2-c2nc(-c3cccc(Cl)c3)cc(-c3ccccc3)c21 (centres undefined) meets or exceeds 8%.
Reply: False

Query: Please indicate if the recorded inhibition for OC1c2ccccc2-c2nc(-c3ccc(Cl)cc3)cc(-c3ccccc3)c21 (centres undefined) meets or exceeds 8%.
Reply: False

Query: Please indicate if the recorded inhibition for OC1c2ccccc2-c2nc(-c3cccc(Br)c3)cc(-c3ccccc3)c21 (centres undefined) meets or exceeds 8%.
Reply: True

Query: Please indicate if the recorded inhibition for OC1c2ccccc2-c2nc(-c3ccccc3F)cc(-c3ccccc3)c21 (centres undefined) meets or exceeds 8%.
Reply: False

Query: Please indicate if the recorded inhibition for OC1c2ccccc2-c2nc(-c3ccccc3Cl)cc(-c3ccccc3)c21 (centres undefined) meets or exceeds 8%.
Reply: False

Query: Please indicate if the recorded inhibition for OC1c2ccccc2-c2nc(-c3ccc(Br)cc3)cc(-c3ccccc3)c21 (centres undefined) meets or exceeds 8%.
Reply: True

Query: Please indicate if the recorded inhibition for OC1c2ccccc2-c2nc(-c3ccc(F)cc3)cc(-c3ccccc3)c21 (centres undefined) meets or exceeds 8%.
Reply: False

Query: Please indicate if the recorded inhibition for OC1c2ccccc2-c2nc(-c3ccccc3Br)cc(-c3ccccc3)c21 (centres undefined) meets or exceeds 8%.
Reply: True

Query: Please indicate if the recorded inhibition for OC1c2ccccc2-c2nc(-c3cccc(F)c3)cc(-c3ccccc3)c21 (centres undefined) meets or exceeds 8%.
Reply: False

----------
# test system: DNA topoisomerase 1 (Homo sapiens) (UniProt P11387)
# Sequence (whole entry): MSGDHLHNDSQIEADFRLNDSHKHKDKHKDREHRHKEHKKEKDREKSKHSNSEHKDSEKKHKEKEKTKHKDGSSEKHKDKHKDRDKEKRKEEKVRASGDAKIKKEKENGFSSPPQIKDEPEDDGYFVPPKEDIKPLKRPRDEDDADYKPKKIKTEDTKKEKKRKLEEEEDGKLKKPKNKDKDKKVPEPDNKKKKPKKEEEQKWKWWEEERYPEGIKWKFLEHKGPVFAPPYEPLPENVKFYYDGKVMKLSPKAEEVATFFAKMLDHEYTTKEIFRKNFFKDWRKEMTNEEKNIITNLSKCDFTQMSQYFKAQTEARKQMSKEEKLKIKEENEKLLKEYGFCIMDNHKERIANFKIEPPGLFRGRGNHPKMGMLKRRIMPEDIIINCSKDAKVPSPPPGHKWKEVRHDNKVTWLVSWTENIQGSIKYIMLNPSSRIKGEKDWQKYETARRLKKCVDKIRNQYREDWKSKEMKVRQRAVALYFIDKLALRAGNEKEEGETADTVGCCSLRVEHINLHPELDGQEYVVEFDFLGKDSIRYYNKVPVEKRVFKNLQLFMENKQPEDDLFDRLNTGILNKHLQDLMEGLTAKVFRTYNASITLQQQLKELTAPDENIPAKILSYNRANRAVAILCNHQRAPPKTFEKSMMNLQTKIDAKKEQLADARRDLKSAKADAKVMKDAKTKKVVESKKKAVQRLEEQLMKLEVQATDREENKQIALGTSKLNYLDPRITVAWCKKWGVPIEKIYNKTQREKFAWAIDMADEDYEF
# test protocol: Inhibition of recombinant human topoisomerase 1 assessed as relaxation of supercoiled plasmid pBR322 DNA at 100 uM by agarose gel electrophoresis (reference value: […]%)
Please go through the items and note down their inhibition.
Numbers only here, please. The scale is %.

Query: Give recorded inhibition. OC1c2ccccc2-c2nc(-c3ccc(C(F)(F)F)cc3)cc(-c3ccccc3)c21 (stereo unspecified)
Reply: 13.8

Query: Give recorded inhibition. OC1c2ccccc2-c2nc(-c3ccccc3OC(F)(F)F)cc(-c3ccccc3)c21 (stereo unspecified)
Reply: 37.4

Query: Give recorded inhibition. OC1c2ccccc2-c2nc(-c3ccc(OC(F)(F)F)cc3)cc(-c3ccccc3)c21 (stereo unspecified)
Reply: 26.8

Query: Give recorded inhibition. OC1c2ccccc2-c2nc(-c3cccc(C(F)(F)F)c3)cc(-c3ccccc3)c21 (stereo unspecified)
Reply: 25.9

Query: Give recorded inhibition. OC1c2ccccc2-c2nc(-c3cccc(OC(F)(F)F)c3)cc(-c3ccccc3)c21 (stereo unspecified)
Reply: 18.3

Query: Give recorded inhibition. OC1c2ccccc2-c2nc(-c3ccccc3C(F)(F)F)cc(-c3ccccc3)c21 (stereo unspecified)
Reply: 7.2

----------
# test system: DNA topoisomerase 2-alpha (Homo sapiens) (UniProt P11388)
# Sequence (P11388 whole entry): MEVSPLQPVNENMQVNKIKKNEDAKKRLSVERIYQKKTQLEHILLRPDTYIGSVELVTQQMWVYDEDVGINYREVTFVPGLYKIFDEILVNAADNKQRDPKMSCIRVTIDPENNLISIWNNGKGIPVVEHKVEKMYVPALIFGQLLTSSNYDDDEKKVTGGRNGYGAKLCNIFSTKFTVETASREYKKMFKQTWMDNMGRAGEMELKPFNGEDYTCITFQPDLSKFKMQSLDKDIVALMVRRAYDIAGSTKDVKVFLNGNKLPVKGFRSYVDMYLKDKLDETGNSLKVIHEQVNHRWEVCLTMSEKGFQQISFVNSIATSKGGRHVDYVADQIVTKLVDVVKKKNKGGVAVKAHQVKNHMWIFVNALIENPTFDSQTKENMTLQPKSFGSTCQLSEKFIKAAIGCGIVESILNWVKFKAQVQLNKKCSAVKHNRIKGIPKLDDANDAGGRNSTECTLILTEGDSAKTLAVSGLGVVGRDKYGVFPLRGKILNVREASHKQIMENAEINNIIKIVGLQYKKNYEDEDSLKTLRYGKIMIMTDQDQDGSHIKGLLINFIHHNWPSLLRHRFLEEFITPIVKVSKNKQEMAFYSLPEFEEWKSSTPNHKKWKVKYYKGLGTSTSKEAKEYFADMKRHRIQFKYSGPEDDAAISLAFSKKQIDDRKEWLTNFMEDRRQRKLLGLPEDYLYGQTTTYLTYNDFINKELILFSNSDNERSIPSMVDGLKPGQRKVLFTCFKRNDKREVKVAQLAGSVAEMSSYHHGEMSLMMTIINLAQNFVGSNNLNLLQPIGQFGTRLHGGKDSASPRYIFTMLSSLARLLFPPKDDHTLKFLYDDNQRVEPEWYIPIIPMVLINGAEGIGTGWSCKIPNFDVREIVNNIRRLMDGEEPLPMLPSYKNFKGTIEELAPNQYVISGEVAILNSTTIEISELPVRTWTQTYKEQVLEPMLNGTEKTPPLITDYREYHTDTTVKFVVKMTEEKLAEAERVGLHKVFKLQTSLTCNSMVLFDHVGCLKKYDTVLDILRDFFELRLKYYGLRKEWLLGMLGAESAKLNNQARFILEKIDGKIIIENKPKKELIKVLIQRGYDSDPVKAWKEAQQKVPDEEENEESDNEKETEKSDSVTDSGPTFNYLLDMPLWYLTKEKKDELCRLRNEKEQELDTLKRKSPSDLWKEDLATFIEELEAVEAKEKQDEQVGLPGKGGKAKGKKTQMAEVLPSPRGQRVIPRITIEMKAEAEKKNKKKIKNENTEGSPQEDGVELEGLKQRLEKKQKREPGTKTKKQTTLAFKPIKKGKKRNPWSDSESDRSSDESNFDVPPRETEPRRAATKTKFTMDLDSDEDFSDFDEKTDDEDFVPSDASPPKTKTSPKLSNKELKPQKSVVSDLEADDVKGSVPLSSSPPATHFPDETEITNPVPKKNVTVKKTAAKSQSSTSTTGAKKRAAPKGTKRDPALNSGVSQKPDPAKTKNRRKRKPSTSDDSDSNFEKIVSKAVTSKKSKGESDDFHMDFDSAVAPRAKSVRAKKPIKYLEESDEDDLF
# test protocol: Inhibition of recombinant human topoisomerase 2alpha assessed as relaxation of supercoiled plasmid pBR322 DNA at 20 uM by agarose gel electrophoresis (reference value: 48.4%)
Hi, to clarify the labels: true covers inhibition from 60% upward, false covers anything below 60%.

Query: Please indicate if the recorded inhibition for O=C1c2ccccc2-c2nc(-c3ccccc3Cl)cc(-c3ccccc3)c21 meets or exceeds 60%.
Reply: true

Query: Please indicate if the recorded inhibition for O=C1c2ccccc2-c2nc(-c3cccc(Br)c3)cc(-c3ccccc3)c21 meets or exceeds 60%.
Reply: false

Query: Please indicate if the recorded inhibition for O=C1c2ccccc2-c2nc(-c3ccc(F)cc3)cc(-c3ccccc3)c21 meets or exceeds 60%.
Reply: false

Query: Please indicate if the recorded inhibition for O=C1c2ccccc2-c2nc(-c3cccc(Cl)c3)cc(-c3ccccc3)c21 meets or exceeds 60%.
Reply: true

Query: Please indicate if the recorded inhibition for O=C1c2ccccc2-c2nc(-c3ccc(Br)cc3)cc(-c3ccccc3)c21 meets or exceeds 60%.
Reply: false

These data points were gathered from ChEMBL document CHEMBL5143515.
